# Lookup of reported residual activity keyed by entry
- ASSAY TARGET: PAK1 (human)
- MEASUREMENT PROTOCOL: radiometric filter-binding kinase assay, Kinase HotSpot
- EXPERIMENTAL SETUP: compound 0.5 µM; ATP 10 µM
State just the number; it will be interpreted in %.

Some compounds with recorded residual activity:
CHEMICAL STRING: FC(F)(F)c1ccc(/C=C/c2nc(COc3ccc(CCCCn4ccnn4)cc3)co2)cc1
ASSAY TARGET: PAK1 (human)
residual activity (%): 104

CHEMICAL STRING: O=S(=O)(NCCNC/C=C/c1ccc(Br)cc1)c1cccc2cnccc12
ASSAY TARGET: PAK1 (human)
residual activity (%): 90.2

CHEMICAL STRING: COc1cc2ncnc(Nc3ccc(O)c(Br)c3)c2cc1OC
ASSAY TARGET: PAK1 (human)
residual activity (%): 94.1

Item N#Cc1c(NC(=O)c2cccc3ccccc23)sc2c1CCCC2 has what recorded residual activity?
97.4

Item c1ccc(-c2cnc(Nc3ccc(OCCN4CCCC4)cc3)s2)cc1 has what recorded residual activity?
97

Item COc1cc2c(Nc3ccc(Br)cc3F)ncnc2cc1OCC1CCN(C)CC1 has what recorded residual activity?
108

Item N#CCCc1ccc2c(c1)-c1[nH]c3ccc([N+](=O)[O-])cc3c1CC(=O)N2 has what recorded residual activity?
52.1

Item N#C/C(=C1/Nc2ccccc2S1)c1ccnc(NCCc2cccnc2)n1 has what recorded residual activity?
96.5

Item Cc1cc(Nc2nc(-c3ccccc3)nc3ccccc23)n[nH]1 has what recorded residual activity?
79.5

Item COc1cc2c(N3CCN(C(=O)Nc4ccc(OC(C)C)cc4)CC3)ncnc2cc1OCCCN1CCCCC1 has what recorded residual activity?
107

---

- ASSAY TARGET: TBK1 (human)
- MEASUREMENT PROTOCOL: radiometric filter-binding kinase assay, Kinase HotSpot
- EXPERIMENTAL SETUP: compound 0.5 µM; ATP 10 µM
REPORTED METRIC: residual activity (%)
State just the number; it will be interpreted in %.

Some molecules with recorded residual activity:
CHEMICAL STRING: FC(F)(F)c1ccc(/C=C/c2nc(COc3ccc(CCCCn4ccnn4)cc3)co2)cc1
residual activity, %: 101
//
CHEMICAL STRING: O=C1NC(=O)c2c1c1c3ccccc3[nH]c1c1[nH]c3cc(Br)ccc3c21
residual activity, %: 53.5
//
CHEMICAL STRING: N/C(=N\N=C/c1ccc(-c2cccc([N+](=O)[O-])c2)o1)N[N+](=O)[O-]
residual activity, %: 104

Now examine the next entry.
Item CN[C@@H]1C[C@H]2O[C@@](C)([C@@H]1OC)n1c3ccccc3c3c4c(c5c6ccccc6n2c5c31)C(=O)NC4 has what recorded residual activity?
-0.455

---

- Test system: SGK1 (human), O00141 [S422D]
- Sequence (O00141 whole entry S422D, looked up): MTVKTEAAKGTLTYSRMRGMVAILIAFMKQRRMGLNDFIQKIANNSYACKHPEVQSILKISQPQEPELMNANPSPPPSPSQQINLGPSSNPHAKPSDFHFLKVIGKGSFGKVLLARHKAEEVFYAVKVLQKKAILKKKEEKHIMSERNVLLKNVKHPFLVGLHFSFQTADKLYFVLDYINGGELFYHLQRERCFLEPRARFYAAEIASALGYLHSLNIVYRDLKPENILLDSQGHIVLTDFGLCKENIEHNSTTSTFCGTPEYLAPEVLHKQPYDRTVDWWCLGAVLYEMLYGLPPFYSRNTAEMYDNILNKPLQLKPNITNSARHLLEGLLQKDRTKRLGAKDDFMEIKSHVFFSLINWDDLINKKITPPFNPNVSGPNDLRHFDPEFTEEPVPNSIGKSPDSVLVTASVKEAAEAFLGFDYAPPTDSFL
- MEASUREMENT PROTOCOL: radiometric filter-binding kinase assay, Kinase HotSpot
- EXPERIMENTAL SETUP: compound 0.5 µM; ATP 10 µM
# Lookup of reported residual activity keyed by entry
State just the number; it will be interpreted in %.

COMPOUND: Fc1ccc(-c2nc3n(c2-c2ccncc2)CCS3)cc1
ASSAY TARGET: SGK1 (human), O00141 [S422D]
residual activity, %: 100

COMPOUND: COc1ccc2c(c1)c(C1=C(c3c[nH]c4ccccc34)C(=O)NC1=O)cn2CCCN(C)C
ASSAY TARGET: SGK1 (human), O00141 [S422D]
residual activity, %: 99.5

COMPOUND: CS(=O)c1ccc(-c2nc(-c3ccc(F)cc3)c(-c3ccncc3)[nH]2)cc1 (stereo not given)
ASSAY TARGET: SGK1 (human), O00141 [S422D]
residual activity, %: 97.3

COMPOUND: COc1cc2ncnc(Nc3ccc(F)c(Cl)c3)c2cc1OCCCN1CCOCC1
ASSAY TARGET: SGK1 (human), O00141 [S422D]
residual activity, %: 131

Now examine the next entry.
Item CNC(=O)c1cc(Oc2ccc(NC(=O)Nc3ccc(Cl)c(C(F)(F)F)c3)cc2)ccn1 has what recorded residual activity?
95.2

---

- ASSAY TARGET: STK4 (human) (UniProt Q13043)
- Sequence (Q13043 whole entry, looked up): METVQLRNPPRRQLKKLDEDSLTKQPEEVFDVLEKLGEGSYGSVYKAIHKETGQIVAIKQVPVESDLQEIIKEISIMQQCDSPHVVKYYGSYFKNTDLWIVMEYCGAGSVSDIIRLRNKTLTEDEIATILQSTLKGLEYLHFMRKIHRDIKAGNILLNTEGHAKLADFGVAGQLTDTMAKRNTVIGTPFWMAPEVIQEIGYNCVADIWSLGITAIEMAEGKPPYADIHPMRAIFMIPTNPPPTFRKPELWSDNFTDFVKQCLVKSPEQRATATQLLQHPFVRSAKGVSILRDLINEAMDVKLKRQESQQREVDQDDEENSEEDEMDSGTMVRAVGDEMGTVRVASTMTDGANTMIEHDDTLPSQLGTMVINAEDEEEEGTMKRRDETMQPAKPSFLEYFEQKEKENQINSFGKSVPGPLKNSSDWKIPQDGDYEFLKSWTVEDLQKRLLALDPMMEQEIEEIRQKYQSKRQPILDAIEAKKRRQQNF
- MEASUREMENT PROTOCOL: radiometric filter-binding kinase assay, Kinase HotSpot
- EXPERIMENTAL SETUP: compound 0.5 µM; ATP 10 µM
REPORTED METRIC: residual activity (%)
State just the number; it will be interpreted in %.

CHEMICAL STRING: CCOc1cc2ncnc(Nc3cccc(Br)c3)c2cc1OCC
ASSAY TARGET: STK4 (human) (UniProt Q13043)
OUTPUT UNIT: %
residual activity: 98.5

Item Nc1ncnc2c1cnn2-c1ccccc1 has what recorded residual activity?
96.8

Item FC(F)(F)c1ccc(/C=C/c2nc(COc3ccc(CCCCn4ccnn4)cc3)co2)cc1 has what recorded residual activity?
97.5

---

# Lookup of reported residual activity keyed by entry
- ASSAY TARGET: EPHB4 (human)
- MEASUREMENT PROTOCOL: radiometric filter-binding kinase assay, Kinase HotSpot
- EXPERIMENTAL SETUP: compound 0.5 µM; ATP 10 µM

Some compounds with recorded residual activity:
CHEMICAL STRING: O=C(O)c1ccc2c3c1cccc3c(=O)n1c3ccccc3nc21
RESULT: 90.6%

CHEMICAL STRING: O=c1c2ccccc2[nH]c(=S)n1CCN1CCC(=C(c2ccc(F)cc2)c2ccc(F)cc2)CC1
RESULT: 97.1%

Item COc1cc2c(cc1OC)-c1[nH]nc(Nc3cccc(F)c3)c1C2 has what recorded residual activity?
95.3%

---

# Lookup of reported residual activity keyed by entry
- ASSAY TARGET: JAK3 JH1 JH2 (human)
- MEASUREMENT PROTOCOL: radiometric filter-binding kinase assay, Kinase HotSpot
- EXPERIMENTAL SETUP: compound 0.5 µM; ATP 10 µM

CHEMICAL STRING: O=S(=O)(NCCNC/C=C/c1ccc(Br)cc1)c1cccc2cnccc12
ASSAY TARGET: JAK3 JH1 JH2 (human)
residual activity: 122%
--
CHEMICAL STRING: N/C(=N\N=C/c1ccc(-c2cccc([N+](=O)[O-])c2)o1)N[N+](=O)[O-]
ASSAY TARGET: JAK3 JH1 JH2 (human)
residual activity: 103%
--
CHEMICAL STRING: COc1cc2c(N3CCN(C(=O)Nc4ccc(OC(C)C)cc4)CC3)ncnc2cc1OCCCN1CCCCC1
ASSAY TARGET: JAK3 JH1 JH2 (human)
residual activity: 99.8%

Item O=C1NC(=O)c2cc(Nc3ccc(F)cc3)c(Nc3ccc(F)cc3)cc21 has what recorded residual activity?
93.9%

Item O=c1c(-c2ccc(F)cc2)c(-c2ccncc2)[nH]n1-c1ccc(Cl)cc1 has what recorded residual activity?
106%

Item Nc1ncnc2c1cnn2-c1ccccc1 has what recorded residual activity?
97.4%

Item CCCCc1c(-c2ccc(O)cc2)[nH]c2nccnc12 has what recorded residual activity?
92.2%

Item O=c1cc(N2CCOCC2)oc2c(-c3ccccc3)cccc12 has what recorded residual activity?
103%

Item O=c1[nH]c2ccccc2n1C1CCN(Cc2ccc(-c3nc4cc5[nH]cnc5cc4nc3-c3ccccc3)cc2)CC1 has what recorded residual activity?
100%

Item Cc1cc(Nc2nc(-c3ccccc3)nc3ccccc23)n[nH]1 has what recorded residual activity?
96.7%

---

# Lookup of reported residual activity keyed by entry
- ASSAY TARGET: MYLK2 (human) (UniProt Q9H1R3)
- Sequence (Q9H1R3 whole entry, looked up): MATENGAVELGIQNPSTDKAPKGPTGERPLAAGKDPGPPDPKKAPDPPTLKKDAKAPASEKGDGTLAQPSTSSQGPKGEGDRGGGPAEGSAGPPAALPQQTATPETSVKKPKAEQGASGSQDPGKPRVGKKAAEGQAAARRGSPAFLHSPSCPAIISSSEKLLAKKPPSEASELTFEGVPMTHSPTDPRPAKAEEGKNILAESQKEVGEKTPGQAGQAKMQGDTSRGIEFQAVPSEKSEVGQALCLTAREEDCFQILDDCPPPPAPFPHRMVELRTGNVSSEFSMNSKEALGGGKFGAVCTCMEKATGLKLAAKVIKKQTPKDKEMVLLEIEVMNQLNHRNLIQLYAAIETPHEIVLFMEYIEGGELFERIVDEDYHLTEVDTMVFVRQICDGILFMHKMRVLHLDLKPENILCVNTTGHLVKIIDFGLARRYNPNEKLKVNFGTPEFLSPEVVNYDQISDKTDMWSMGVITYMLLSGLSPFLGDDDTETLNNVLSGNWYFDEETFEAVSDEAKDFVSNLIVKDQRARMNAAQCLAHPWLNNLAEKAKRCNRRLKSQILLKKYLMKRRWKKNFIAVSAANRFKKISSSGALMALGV
- MEASUREMENT PROTOCOL: radiometric filter-binding kinase assay, Kinase HotSpot
- EXPERIMENTAL SETUP: compound 0.5 µM; ATP 10 µM
State just the number; it will be interpreted in %.

Some compounds with recorded residual activity:
CHEMICAL STRING: Nc1ncnc2c1cnn2-c1ccccc1
OUTPUT UNIT: %
residual activity: 99.9
//
CHEMICAL STRING: O=c1c(-c2ccc(F)cc2)c(-c2ccncc2)[nH]n1-c1ccc(Cl)cc1
OUTPUT UNIT: %
residual activity: 101

Lookup: residual activity / MYLK2 (human) (UniProt Q9H1R3) / O=c1cc(N2CCOCC2)oc2c(-c3ccccc3)cccc12
102

Lookup: residual activity / MYLK2 (human) (UniProt Q9H1R3) / N#Cc1c(NC(=O)c2cccc3ccccc23)sc2c1CCCC2
101

Lookup: residual activity / MYLK2 (human) (UniProt Q9H1R3) / c1ccc(-c2cnc(Nc3ccc(OCCN4CCCC4)cc3)s2)cc1
28.7

Lookup: residual activity / MYLK2 (human) (UniProt Q9H1R3) / COc1cc2c(cc1OC)-c1[nH]nc(Nc3cccc(F)c3)c1C2
86.4

---

- ASSAY TARGET: UniProtKB Q9H2K8
- Sequence (Q9H2K8 whole entry, looked up): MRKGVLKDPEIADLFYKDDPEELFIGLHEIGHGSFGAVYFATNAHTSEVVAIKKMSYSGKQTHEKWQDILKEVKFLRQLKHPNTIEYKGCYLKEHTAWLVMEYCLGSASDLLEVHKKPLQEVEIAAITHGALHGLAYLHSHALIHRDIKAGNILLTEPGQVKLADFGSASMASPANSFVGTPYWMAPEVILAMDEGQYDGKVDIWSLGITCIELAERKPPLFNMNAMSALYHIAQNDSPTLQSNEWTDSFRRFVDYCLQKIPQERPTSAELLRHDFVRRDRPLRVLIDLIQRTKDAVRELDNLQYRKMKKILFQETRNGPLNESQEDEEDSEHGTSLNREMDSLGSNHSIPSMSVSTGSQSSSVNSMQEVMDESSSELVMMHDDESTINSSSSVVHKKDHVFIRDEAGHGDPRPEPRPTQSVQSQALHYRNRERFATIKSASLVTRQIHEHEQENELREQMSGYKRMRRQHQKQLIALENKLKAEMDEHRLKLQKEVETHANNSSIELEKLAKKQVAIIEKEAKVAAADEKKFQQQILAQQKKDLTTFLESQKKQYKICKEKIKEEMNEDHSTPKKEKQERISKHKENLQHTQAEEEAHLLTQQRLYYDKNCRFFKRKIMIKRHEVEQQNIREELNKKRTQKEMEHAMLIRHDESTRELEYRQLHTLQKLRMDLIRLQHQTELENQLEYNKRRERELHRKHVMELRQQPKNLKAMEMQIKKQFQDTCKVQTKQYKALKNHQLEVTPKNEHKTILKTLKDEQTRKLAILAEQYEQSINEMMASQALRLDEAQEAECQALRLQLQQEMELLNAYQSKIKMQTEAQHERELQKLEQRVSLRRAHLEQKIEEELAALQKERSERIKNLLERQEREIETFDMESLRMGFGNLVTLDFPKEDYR
- MEASUREMENT PROTOCOL: radiometric filter-binding kinase assay, Kinase HotSpot
- EXPERIMENTAL SETUP: compound 0.5 µM; ATP 10 µM
REPORTED METRIC: residual activity

Some molecules with recorded residual activity:
CHEMICAL STRING: O=c1c(-c2ccc(F)cc2)c(-c2ccncc2)[nH]n1-c1ccc(Cl)cc1
residual activity: 89.5%
//
CHEMICAL STRING: COc1cccc(-c2cc(=O)c3ccccc3o2)c1N
residual activity: 77%
//
CHEMICAL STRING: O=C(O)c1ccc2c3c1cccc3c(=O)n1c3ccccc3nc21
residual activity: 93.1%
//
CHEMICAL STRING: COc1cc2c(cc1OC)-c1[nH]nc(Nc3cccc(F)c3)c1C2
residual activity: 91.5%
//
CHEMICAL STRING: N/C(=N\N=C/c1ccc(-c2cccc([N+](=O)[O-])c2)o1)N[N+](=O)[O-]
residual activity: 99.5%

Lookup: residual activity / UniProtKB Q9H2K8 / CCCCc1c(-c2ccc(O)cc2)[nH]c2nccnc12
82.5%

Lookup: residual activity / UniProtKB Q9H2K8 / O=S(=O)(NCCNC/C=C/c1ccc(Br)cc1)c1cccc2cnccc12
95.4%

Lookup: residual activity / UniProtKB Q9H2K8 / N#CCCc1ccc2c(c1)-c1[nH]c3ccc([N+](=O)[O-])cc3c1CC(=O)N2
66%

Lookup: residual activity / UniProtKB Q9H2K8 / O=c1[nH]c2ccccc2n1C1CCN(Cc2ccc(-c3nc4cc5[nH]cnc5cc4nc3-c3ccccc3)cc2)CC1
111%

Lookup: residual activity / UniProtKB Q9H2K8 / COc1cc2ncnc(Nc3ccc(O)c(Br)c3)c2cc1OC
98.8%

Values compiled from the kinase profiling compilation of Christmann-Franck et al. (2016).
